Attribution: ChEMBL document CHEMBL1146911

METHOD SUMMARY: AUC in dog at 0.3 mg/kg, po
Format: ADME, organism-based, Canis lupus familiaris
Design: dose 0.3 mg/kg, route oral
RUN CONDITIONS: plasma
QUANTITY: AUC (µM·h)

- CCC(=O)N1CCC(NC(=O)NC23CC4CC(CC(C4)C2)C3)CC1: 0.108
- O=C(NC1CCN(C(=O)C(F)(F)F)CC1)NC12CC3CC(CC(C3)C1)C2: 0.055
- O=C(NCC1CCN(C(=O)c2ccccc2)CC1)NC12CC3CC(CC(C3)C1)C2: 0.0055
- O=C(O)CCCCCCCCCCCNC(=O)NC12CC3CC(CC(C3)C1)C2: 0.0517
- CC(=O)N1CCC(CNC(=O)NC23CC4CC(CC(C4)C2)C3)CC1: 0.0917

(I) O=C(NC1CCN(C(=O)c2ccccn2)CC1)NC12CC3CC(CC(C3)C1)C2
(II) CC(=O)N1CCC(NC(=O)NC23CC4CC(CC(C4)C2)C3)CC1
(III) O=C(NC1CCN(C(=O)c2ccccc2)CC1)NC12CC3CC(CC(C3)C1)C2
(IV) CCCC(=O)N1CCC(NC(=O)NC23CC4CC(CC(C4)C2)C3)CC1
// query Hey, quick one: sort these by AUC, low to high? Return the labels ranked in the requested order, please.
// result III, IV, I, II
(III: 0.0102 µM·h, IV: 0.0417 µM·h, I: 0.0783 µM·h, II: 0.617 µM·h)

====

ASSAYED TARGET: Bifunctional epoxide hydrolase 2 (Homo sapiens)
Sequence (P34913 whole entry): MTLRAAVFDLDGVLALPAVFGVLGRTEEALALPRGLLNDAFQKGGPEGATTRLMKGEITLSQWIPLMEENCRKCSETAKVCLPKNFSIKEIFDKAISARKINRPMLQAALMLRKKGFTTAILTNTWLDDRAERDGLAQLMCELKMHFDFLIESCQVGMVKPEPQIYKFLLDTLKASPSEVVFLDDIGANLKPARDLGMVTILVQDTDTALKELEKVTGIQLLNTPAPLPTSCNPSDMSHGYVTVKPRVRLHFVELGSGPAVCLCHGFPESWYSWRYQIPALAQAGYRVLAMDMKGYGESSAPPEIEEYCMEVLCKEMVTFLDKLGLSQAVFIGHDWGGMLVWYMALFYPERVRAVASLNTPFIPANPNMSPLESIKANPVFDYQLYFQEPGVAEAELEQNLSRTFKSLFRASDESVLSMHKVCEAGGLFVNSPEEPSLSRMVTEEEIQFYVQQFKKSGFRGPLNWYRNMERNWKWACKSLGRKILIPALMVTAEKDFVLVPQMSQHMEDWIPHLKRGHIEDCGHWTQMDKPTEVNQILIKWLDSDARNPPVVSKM
QUANTITY: IC50 (nM)

Answered examples (5):
* O=C(NCC1CCN(C(=O)c2cccc(C(=O)O)c2)CC1)NC12CC3CC(CC(C3)C1)C2 | 43
* O=C(NC1CCN(C(=O)c2cccnc2)CC1)NC12CC3CC(CC(C3)C1)C2 | 1.7
* O=C(NCC1CCN(C(=O)c2cccnc2)CC1)NC12CC3CC(CC(C3)C1)C2 | 5.4
* O=C(NCC1CCN(C(=O)c2ccncc2)CC1)NC12CC3CC(CC(C3)C1)C2 | 7.3
* O=C(NCC1CCN(C(=O)c2ccccc2C(=O)O)CC1)NC12CC3CC(CC(C3)C1)C2 | 400

(1) O=C(O)CCCC(=O)N1CCC(CNC(=O)NC23CC4CC(CC(C4)C2)C3)CC1
(2) O=C(NC1CCN(C(=O)c2ccncc2)CC1)NC12CC3CC(CC(C3)C1)C2
// query Of 1 and 2 , which one carries the higher reported IC50? Your choice should be expressed through its label.
// result 1
(1: 41 nM, 2: 2.1 nM)
